# System: HCC-2998 colon
# Procedure text: NCI-60 one-dose screen, 48 h
# Conditions: 10 µM unless noted
# Method: Growth inhibition of the HCC-2998 human tumor cell line is measured as a screen for anti-cancer activity. Cells are grown in 96 well plates and exposed to the test compound for 48 hours. Compounds are tested at a single concentration, which is 10^-5 M for most compounds. The reported endpoint is percent growth (GI% or GIPRCNT), where numbers from 0 - 100% represent growth inhibition, and numbers from -100% - 0 represent cell death. For example, a value of 40 represents 60% growth inhibition. […]
Compounds without any hit were thinned out: in the full panel of roughly 83,000, 20% have a hit. Calls of active or inactive are those of the source. Rule for the calls: active = growth percent below 10; inactive = the rest.
Possible outcomes: active, inactive

>>> df
                                   compound  answer_label
0    COc1cc(/C=C2\C(=O)Nc3ccccc32)cc(OC)c1O      inactive
1  COc1cc(-c2nc(Nc3nc4ccccc4[nH]3)nc(N)c2C#N)cc(OC)c1OC      inactive
2  C[C@H]1C(=O)C23CCC1C[C@@]21O[C@@H]2C(C)(C)C=CC(=O)C23COC1=O      inactive
3                         COc1ncc(F)c(OC)n1      inactive
4      Clc1ccc(C2=Nc3cccc4cccc(c34)N2)cc1Cl      inactive
5  COc1ccc(Nc2nc(NCCNc3ccnc4cc(Cl)ccc34)nc(N3CCOCC3)n2)cc1        active
6      COc1ccc(/C=C(\C#N)c2cc3ccccc3n2C)cc1      inactive
7  COc1ccc(/C=N/NC(=O)c2cnn(CC(O)Cc3ccccc3)c2N)cc1OC1CCCC1 (stereo not given)      inactive
8  COc1ccc(-n2ncc3c2ccc2cc(S(=O)(=O)c4ccccc4)c(=O)n(C)c23)cc1      inactive
9  CCC(C)Oc1cc(/C=N/NC(=O)c2cnn3c2NC(c2ccccc2)C3)ccc1OC (stereo not given)      inactive
